# Test system: formation of free radicals from biological membrane undergoing oxidative stress (MDA formation)
# Assay Name: Formation of malonodialdehyde (MDA) test: antagonism of free radical formation from biological membrane undergoing oxidative stress
# Assay type: biochemical
# Settings: in vitro; IC50 = dose of compound necessary to reduce by 50% the harmful effect
# Procedure: For the first experiment was chosen the test on formation of malonodialdehyde (MDA). Briefly, the capacity was tested of the above compounds to antagonize the formation of free radicals from biological membrane undergoing oxidative stress. of compound necessary to reduce by 50% the harmful effect to be added to the in vitro tests or to be administered to mice.
Measurement Kind: log10(IC50) (log10 of the value in µM)
// do not treat as linear: log10 of IC50, unit µM

[Q] Which value of log10(IC50) has been reported for O=C(O)C(=O)Cc1c[nH]c2ccccc12 in the records?
[A] 1.00

***
[Q] Which value of log10(IC50) has been reported for O=C(O)C(=O)Cc1c[nH]c2cccc(Cl)c12 in the records?
[A] 3.00

[Q] Which value of log10(IC50) has been reported for O=C(O)C(=O)Cc1c[nH]c2ccc(Cl)cc12 in the records?
[A] 2.70
